- System: OVCAR-3 ovarian
- protocol: NCI tumour cell line growth inhibition, 48 h
value kind: TGI (µM)
Answer in µM, number only, no unit symbol.

In the examples that follow, each entry is paired with its recorded TGI.
TGI measured on `CN(C)C(=S)/N=c1\ssc(=S)n1Cc1ccccn1` = 11.3

Short answer for COc1ccc(C2c3c(-c4ccccc4)nn(-c4ccccc4)c3Oc3ncn(N)c(=N)c32)cc1OC (stereo not given) : TGI was 2.95

For this compound ( `COC(=O)C1=C2CO[C@@H]3C[C@H]4C(C)(C)CCC[C@]4(C)C(=CC1)[C@]23C` ), measured TGI is 32.2

Lab book: TGI of `O=C1c2c(O)cccc2C(C(=O)CCCC(=O)C2c3cccc(O)c3C(=O)c3c(O)cccc32)c2cccc(O)c21` noted as 0.798

Others:
Input `C=C(CN(CCN1CCOCC1)CC(=C)c1ccc(C(=O)Nc2ccccc2N)cc1)c1ccc(C(=O)Nc2ccccc2N)cc1` . Output TGI: 39.8

Reported TGI for `O=S(=O)(Nc1nc(-c2cc(O)c(O)c(O)c2)cs1)c1ccc(Cl)cc1Cl` was 37.6

According to the records, this compound CC1(C)CC(O)CCCCCCOc2c(CN)cccc2NC(=O)c2nc(cnc2N)-c2ccc(cc2)S1(=O)=O (stereo not given) displays TGI of 3.34

Record `CN(C)Cc1cc(C(=O)/C=C/c2c(F)cccc2Cl)cc(CN(C)C)c1O` . Reported TGI: 24.6

TGI recorded for this compound, CC1=NN(c2cccc(Cl)c2)C2(C1)SCC(=O)N2c1nc2ccccc2s1 (stereo not given) , is 58.9

Documented TGI of Cc1ccc2oc(=O)cc(C3c4ccc([nH]4)C(c4cc(=O)oc5ccc(C)cc45)c4ccc([nH]4)C(c4cc(=O)oc5ccc(C)cc45)c4ccc([nH]4)C(c4cc(=O)oc5ccc(C)cc45)c4ccc3[nH]4)c2c1 (stereo not given) : 0.0533

// TGI lookup, compound = CCCCCCCCCCC(CN(CC)CC)C(O)c1ccccc1 (stereo not given) , result: 3.78

TGI recorded for this compound, C[C@@H]1CCC2[C@@H](C)[C@H](OC(=O)CCC(=O)NCCNC(=O)Cc3cc(=O)oc4cc(N(C)C)ccc34)O[C@@H]3O[C@]4(C)CC[C@@H]1C23OO4 (stereo not given in full) , is 18.1

get_value(item= CCC[CH2][Sn]1([CH2]CCC)[O]CC([CH2][Sn]([c]2ccccc2)([c]2ccccc2)[c]2ccccc2)[O]1 (stereo not given) , readout=TGI) returns 29.9

Reported TGI of `Cc1cc(NS(=O)(=O)c2ccc(NC(=O)c3cccc4c(NNc5ccc(S(N)(=O)=O)cc5)c5ccccc5nc34)cc2)no1` : 71.1
